Tested on: BT-549
Assay: NCI tumour cell line growth inhibition, 48 h
Active and inactive are the calls of the source. Rule as the data show it: active = GI50 up to about 1.1 µM and inactive = higher.
Select the matching outcome among true for active, false for inactive

Call for entry `CC(C)CC(=O)NC(Nc1ccc(S(=O)(=O)Nc2ncccn2)cc1)(C(F)(F)F)C(F)(F)F` :
false

Call for entry CCOc1cc(C2CC(c3ccc(NS(=O)(=O)c4cc([N+](=O)[O-])ccc4C)cc3)=NN2)ccc1O (stereo unspecified) :
false

Call for entry `COc1ccc(O)c(/C=N/NC(=S)N2CCCCC2)c1` :
false

Call for entry `CC(C)Cc1c(C#N)c(C#N)c(N)n1Cc1ccccc1` :
false

Call for entry C[C@H](NC(=O)C(Cc1ccccc1)(Cc1ccc(O)cn1)NC(=O)c1ccccc1)c1ccccc1 (stereo partly specified) :
false

Call for entry `Cc1cn([C@H]2[C@@H](CO)C[C@H]2O)c(=O)[nH]c1=O` :
false

Call for entry COc1ccc(N2C(=O)C3c4[nH]c5c(C)cccc5c4C4CCC(C(C)C)CC4C3C2=O)cc1 (stereo unspecified) :
false

Call for entry OCc1ccc2c(c1)CC1(Cc3ccc(/C=N/O)cc3C1)C2 (stereo unspecified) :
false

Call for entry `O=C1N(C2CCCCC2)C(=O)N1C1CCCCC1` :
true

Call for entry C[N+]1(C(CO)Cc2c[nH]c3ccccc23)Cc2ccccc2C1 (stereo unspecified) :
false

Call for entry `CC(C)NC(=O)N(Nc1ccccc1)C(C)(C)C` :
false

Call for entry `COC1(OC)C[C@H](C)[C@@]23O[C@]24C2=CC(=O)C=CC2=N[C@H]3C#C/C=C\C#C[C@]14O` :
true

Call for entry `O=C1C2CCN(CC2)C1(CO)CO` :
false

Call for entry CC1=NNC(=O)C1C1CC(c2c[nH]c3ccccc23)=NNC1=S (stereo unspecified) :
false

Call for entry C=C1C(=O)OC2C1C(OC(=O)/C(C)=C/C)CC(O)(CCl)C1C(OC(C)=O)C=C(C)C21O (stereo unspecified) :
false

Call for entry `Cc1c(F)c(N)c2c(=O)cc(-c3ccc(NC(=O)[C@@H](N)CCCCN)c(F)c3)oc2c1F` :
false

Call for entry `O=S1(=O)N=C(SCc2c[nH]c3ccccc23)N(c2ccccc2)c2ccncc21` :
false

Call for entry `O=C1/C(=C/c2ccccc2)CCc2ccc([N+](=O)[O-])cc21` :
false

Call for entry CC[C@@]1(O)CC(OC2CC(N3CCOCC3)C(O)C(C)O2)c2c(O)c3c(c(O)c2[C@H]1O)C(=O)c1cccc(O)c1C3=O (stereo partly specified) :
true

Call for entry C=C(Br)C(C)(Cl)CCC(Br)C(C)(C)Cl (stereo unspecified) :
false

Call for entry COC(=O)C1=C(OC(=O)/C=C/c2ccc(Cl)cc2)C(C(=O)OC)[C@]2(O)[C@@H](C(=O)OC)[C@H]1C[C@@H](c1ccccc1)[C@@H]2C(=O)OC (stereo partly specified) :
false

----------
For each entry below, report its GI50 value.
System: DLD-1
Experiment: NCI tumour cell line growth inhibition, 48 h
Active and inactive are the calls of the source. Rule as the data show it: active = GI50 up to about 1.1 µM and inactive = higher.

# query: GI50 of entry COC(=O)/C(C#N)=C1\CCC(Nc2cccc(C(F)(F)F)c2)N1C (stereo unspecified)
57.5 µM (inactive)

# query: GI50 of entry CCc1c(OC(C)=O)c2c(NC3OC(COC(C)=O)C(OC(C)=O)C(OC(C)=O)C3OC(C)=O)nc(OC)nc2oc1=O (stereo unspecified)
> 100 µM (inactive)

# query: GI50 of entry `CC(=O)c1cc2c3c(c1)c1cc4c(cc1c(=O)n3CC2)OCO4`
15.2 µM (inactive)

# query: GI50 of entry `Cc1ccccc1-n1c2nc(=O)n(C)c(=O)c-2nc2ccccc21`
16.7 µM (inactive)

# query: GI50 of entry `Cc1cccc(C)c1NC(=O)CCc1nnc2s/c(=C\c3ccc(N(C)C)cc3)c(=O)n12`
> 100 µM (inactive)

# query: GI50 of entry CCC(C)(O)c1cn(-c2ccc(Cl)cc2)nn1 (stereo unspecified)
> 100 µM (inactive)

# query: GI50 of entry [O-][S+]1c2ccccc2N=C(c2ccc(Cl)cc2)CC1c1cccs1 (stereo unspecified)
12.2 µM (inactive)

# query: GI50 of entry `C/C(=N/NC(=O)CC(=O)N(C(=O)c1ccccc1Cl)c1ccc(C)cc1)c1cc2ccccc2oc1=O`
> 100 µM (inactive)

# query: GI50 of entry FC(F)(F)C1(Cl)C(Cl)(c2ccccc2)C1(Cl)c1ccccc1 (stereo unspecified)
15.4 µM (inactive)

# query: GI50 of entry CC1CCC2(OCCO2)[C@]2(C)CC(O)C(=O)C=C12 (stereo partly specified)
> 100 µM (inactive)

# query: GI50 of entry `Cc1cc(C)nc(NS(=O)(=O)c2ccc(Nc3c4ccccc4nc4c(C(=O)NCCN(C)C)ccc(Cl)c34)cc2)n1`
3.03 µM (inactive)

# query: GI50 of entry `Cc1ccc(S(=O)(=O)N/N=C\c2c3ccccc3[n+](C)c3ccccc23)cc1`
38.1 µM (inactive)

# query: GI50 of entry `CC1=C(C(=O)Nc2ccc(Cl)c(Cl)c2)C(c2ccc([N+](=O)[O-])cc2)C(C(=O)Nc2ccc(Cl)c(Cl)c2)=C(C)N1`
3.41 µM (inactive)

# query: GI50 of entry `CCSc1nnc(CSc2nc(-c3ccccc3)c(-c3ccccc3)[nH]2)n1-c1ccccc1`
20.2 µM (inactive)

# query: GI50 of entry CC(=O)O[C@H]1C=CC(=O)C(C)CC1C (stereo partly specified)
64 µM (inactive)

# query: GI50 of entry O=C(/C(=C/c1ccccc1)c1ccccc1)N1c2ccccc2CC1c1c[nH]c2ccccc12 (stereo unspecified)
53.2 µM (inactive)
